Source: PubChem BioAssay (NCI)

# Tested on: SNB-75 CNS
# ASSAY_PROTOCOL: NCI-60 one-dose screen, 48 h
# REPORTED_CONDITIONS: 10 µM unless noted
The panel holds about 83,000 compounds, 20% with a hit somewhere; the sample as a whole holds those more often. Activity calls are given as the source filed them. Rule for the calls: active = growth percent below 10; inactive = the rest.
Labels: active, inactive

MOLECULE	QUALITATIVE_LABEL
Cc1c2oc3c(C)ccc(C(=O)OC(C)C4NC(=O)C(C(C)C)N(C)C(=O)CN(C)C(=O)C5CCCN5C(=O)C(C(C)C)NC4=O)c3nc-2c(C(=O)OC(C)C2NC(=O)C(C(C)C)N(C)C(=O)CN(C)C(=O)C3CCCN3C(=O)C(C(C)C)NC2=O)c(N)c1=O (stereo unspecified)	active
CCCCCCCCCCNCCSS(=O)(=O)O	inactive
O=C1Nc2ccc(Cl)cc2/C1=C/c1cccs1	inactive
CCOC(=O)c1sc(NC(=O)COc2ccc(/C=C3\CCc4cc(OC)ccc4C3=O)cc2)nc1C	inactive
Oc1ccc(/C=N/Nc2nc3ccccc3s2)c(O)c1	inactive
COc1ccc(/C=C2\CCc3ccccc3C2=O)cc1	inactive
